- Assay Protocol: Cytotoxicity against mouse J774 cells assessed as cell viability at 0.1 ug/ml after 24 hrs by MTT assay
- Assay type: cell-based
- Cond: read-out: Activity
// reported viability at 24 h, 0.1 ug/ml per item

| Structure Notation | Value Units | viability at 24 h, 0.1 ug/ml |
| --- | --- | --- |
| COc1ccc(CN2CCN(C[C@@H](O)[C@H](Cc3ccccc3)NC(=O)OC(C)(C)C)CC2)cc1 | % | 100 |
| CC(C)(C)OC(=O)N[C@@H](Cc1ccccc1)[C@H](O)CN1CCN(Cc2ccc3c(c2)OCO3)CC1 | % | 100 |
| CN1CCN(C[C@@H](O)[C@H](Cc2ccccc2)NC(=O)OC(C)(C)C)CC1 | % | 94 |
| COc1ccc(CN2CCN(C[C@@H](O)[C@H](Cc3ccccc3)NC(=O)OC(C)(C)C)CC2)cc1OC | % | 100 |
| CC(C)(C)OC(=O)N[C@@H](Cc1ccccc1)[C@H](O)CN1CCN(Cc2ccccc2)CC1 | % | 95 |
| CC(C)(C)OC(=O)N[C@@H](Cc1ccccc1)[C@H](O)CN1CCN(Cc2ccc([N+](=O)[O-])cc2)CC1 | % | 100 |
| CC(C)(C)OC(=O)N[C@@H](Cc1ccccc1)[C@H](O)CN1CCNCC1 | % | 100 |
| CC(C)(C)OC(=O)N[C@@H](Cc1ccccc1)[C@H](O)CN1CCN(Cc2ccc(N)cc2)CC1 | % | 100 |
| CC(C)(C)OC(=O)N[C@@H](Cc1ccccc1)[C@H](O)CN1CCN(Cc2ccc(F)cc2)CC1 | % | 100 |
| CC(C)(C)OC(=O)N[C@@H](Cc1ccccc1)[C@H](O)CN1CCN(Cc2ccc(Cl)cc2)CC1 | % | 100 |
| CC(C)(C)OC(=O)N[C@@H](Cc1ccccc1)[C@H](O)CN1CCN(c2ccccc2)CC1 | % | 100 |
